Measured IC50 values are reported for all entries that follow.
- ASSAYED SYSTEM: His-GST-PARP7 (Homo sapiens (Human))
- Sequence (Q7Z3E1 whole entry): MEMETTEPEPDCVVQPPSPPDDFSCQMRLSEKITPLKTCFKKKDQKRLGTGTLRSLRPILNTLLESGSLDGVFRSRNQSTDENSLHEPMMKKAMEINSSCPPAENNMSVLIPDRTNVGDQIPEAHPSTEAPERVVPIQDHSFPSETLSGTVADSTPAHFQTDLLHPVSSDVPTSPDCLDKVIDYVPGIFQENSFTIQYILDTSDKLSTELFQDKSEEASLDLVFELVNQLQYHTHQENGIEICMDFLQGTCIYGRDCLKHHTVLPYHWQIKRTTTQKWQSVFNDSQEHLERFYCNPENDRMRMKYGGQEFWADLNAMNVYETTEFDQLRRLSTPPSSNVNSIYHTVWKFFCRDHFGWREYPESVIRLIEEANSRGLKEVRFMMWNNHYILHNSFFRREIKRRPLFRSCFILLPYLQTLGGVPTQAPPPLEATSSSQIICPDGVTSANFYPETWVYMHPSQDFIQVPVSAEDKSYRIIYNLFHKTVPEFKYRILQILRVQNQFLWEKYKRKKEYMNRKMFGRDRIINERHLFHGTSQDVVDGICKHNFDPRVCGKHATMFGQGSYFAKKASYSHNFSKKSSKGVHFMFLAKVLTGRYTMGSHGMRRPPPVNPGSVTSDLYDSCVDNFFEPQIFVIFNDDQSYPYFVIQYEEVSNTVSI
- EXPERIMENTAL PROTOCOL: PARP7 biochemical assay
- EXPERIMENTAL SETUP: read-out: PARP7 IC50

N#Cc1ccc(N2CCN(C(=O)c3cc(Cc4n[nH]c(=O)c5ccc(NCC6CC6)cc45)ccc3F)CC2)nc1 [Example 20]
< 50 nM
[2H]C([2H])(c1ccc(F)c(C(=O)N2CCN(c3ccc(C#N)cn3)CC2)c1)c1n[nH]c(=O)c2ccc(C#CC)cc12 [Example 73]
< 50 nM
O=C(NC1CN(C(=O)c2cc(Cc3n[nH]c(=O)c4ccc(OC5CCC5)cc34)ccc2F)C1)C1CC1 [Example 113]
100 to 500 nM
N#Cc1ccc(N2CCN(C(=O)c3cc(Cc4n[nH]c(=O)c5ccc(OC6CCC6)cc45)ccc3F)CC2)nc1C(F)(F)F [Example 135]
50 to 100 nM
O=C(c1cc(Cc2n[nH]c(=O)c3ccc(OC4CCC4)cc23)ccc1F)N1CC2CN(c3ncc(C(F)(F)F)cn3)CC2C1 (centres unmarked) [Example 147]
> 2000 nM

Retrieve IC50 measured for N#Cc1cnc(N2CCN(C(=O)c3cc(Cc4n[nH]c(=O)c5ccc(OC6CCC6)cc45)ccc3F)CC2)c(C(F)(F)F)c1 [Example 129] and print it.
< 50 nM

Retrieve IC50 measured for O=C(c1cc(Cc2n[nH]c(=O)c3ccc(OC4CCC4)cc23)ccc1F)N1CCN(c2ncc(C(F)F)cn2)CC1 [Example 157] and print it.
< 50 nM

###

- ASSAYED SYSTEM: UniProt Q7Z3E1
- EXPERIMENTAL PROTOCOL: PASTA biochemical PARP screening assay, PARP7
MEASUREMENT TYPE: IC50 (nM)
Numeric only. Scale: nM

Retrieve IC50 measured for CC#Cc1ccc2c(=O)[nH]nc(Cc3ccc(F)c(C(=O)N4CCN(c5ccc(C#N)cn5)CC4)c3)c2c1 [Example 10] and print it.
13.7

###

- ASSAYED SYSTEM: PARP6 (Homo sapiens (Human), UniProt Q2NL67)
- Sequence (Q2NL67 whole entry, species assumed): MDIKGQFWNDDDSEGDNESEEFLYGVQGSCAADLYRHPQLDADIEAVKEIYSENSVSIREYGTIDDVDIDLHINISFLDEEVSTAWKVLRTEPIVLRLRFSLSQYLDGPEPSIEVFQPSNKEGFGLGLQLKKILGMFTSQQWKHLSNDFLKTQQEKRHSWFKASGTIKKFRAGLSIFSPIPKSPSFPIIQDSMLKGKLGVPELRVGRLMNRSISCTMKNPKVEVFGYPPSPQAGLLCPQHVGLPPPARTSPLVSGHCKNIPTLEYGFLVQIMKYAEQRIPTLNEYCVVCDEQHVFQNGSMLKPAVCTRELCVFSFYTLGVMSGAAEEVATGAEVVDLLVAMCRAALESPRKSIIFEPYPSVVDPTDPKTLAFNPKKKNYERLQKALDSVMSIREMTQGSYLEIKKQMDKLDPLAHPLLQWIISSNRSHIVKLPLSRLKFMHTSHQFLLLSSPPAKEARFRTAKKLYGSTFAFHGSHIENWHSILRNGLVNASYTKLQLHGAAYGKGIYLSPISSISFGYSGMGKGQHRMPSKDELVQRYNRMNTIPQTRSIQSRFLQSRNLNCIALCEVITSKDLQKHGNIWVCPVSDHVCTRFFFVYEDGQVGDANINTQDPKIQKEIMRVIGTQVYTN
MEASUREMENT TYPE: pIC50
The value called pIC50 is obtained by taking minus log10 of the concentration in mol/L.

Please report pIC50 with PARP6 (Homo sapiens (Human), UniProt Q2NL67) for item CC#Cc1ccc2c(=O)[nH]nc(Cc3ccc(F)c(C(=O)N4CCN(c5ccc(C#N)cn5)CC4)c3)c2c1 [Example 10] .
6.11

###

- ASSAYED SYSTEM: PARP10 (Homo sapiens (Human))
- Sequence (Q53GL7 whole entry, species assumed): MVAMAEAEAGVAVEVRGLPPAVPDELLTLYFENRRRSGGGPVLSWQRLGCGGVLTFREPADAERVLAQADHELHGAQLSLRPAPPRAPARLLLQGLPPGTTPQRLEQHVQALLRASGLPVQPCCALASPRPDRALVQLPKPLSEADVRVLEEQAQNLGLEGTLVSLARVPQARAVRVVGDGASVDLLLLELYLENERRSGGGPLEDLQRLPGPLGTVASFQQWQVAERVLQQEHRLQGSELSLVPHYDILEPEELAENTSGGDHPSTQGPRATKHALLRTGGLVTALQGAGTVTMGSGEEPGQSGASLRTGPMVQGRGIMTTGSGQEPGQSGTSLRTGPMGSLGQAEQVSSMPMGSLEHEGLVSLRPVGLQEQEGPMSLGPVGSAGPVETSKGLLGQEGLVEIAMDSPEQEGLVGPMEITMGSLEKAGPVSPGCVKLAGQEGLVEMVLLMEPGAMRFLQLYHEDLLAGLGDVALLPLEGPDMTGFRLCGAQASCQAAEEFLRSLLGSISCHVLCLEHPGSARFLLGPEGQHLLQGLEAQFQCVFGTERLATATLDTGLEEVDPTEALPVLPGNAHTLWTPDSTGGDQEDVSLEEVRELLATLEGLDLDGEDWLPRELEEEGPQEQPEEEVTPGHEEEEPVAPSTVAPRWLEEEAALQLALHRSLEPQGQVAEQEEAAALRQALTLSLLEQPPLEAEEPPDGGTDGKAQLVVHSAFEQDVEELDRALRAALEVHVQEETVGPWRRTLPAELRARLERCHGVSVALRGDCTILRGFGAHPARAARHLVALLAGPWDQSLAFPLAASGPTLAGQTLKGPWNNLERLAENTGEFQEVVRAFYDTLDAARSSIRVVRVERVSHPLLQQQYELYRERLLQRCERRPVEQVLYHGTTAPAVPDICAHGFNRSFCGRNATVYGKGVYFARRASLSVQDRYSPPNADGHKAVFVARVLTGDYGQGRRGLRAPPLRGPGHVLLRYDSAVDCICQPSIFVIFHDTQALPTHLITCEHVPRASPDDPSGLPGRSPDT
MEASUREMENT TYPE: pIC50
The value called pIC50 is obtained by taking minus log10 of the concentration in mol/L.

Please report pIC50 with PARP10 (Homo sapiens (Human)) for item CC#Cc1ccc2c(=O)[nH]nc(Cc3ccc(F)c(C(=O)N4CCN(c5ccc(C#N)cn5)CC4)c3)c2c1 [Example 10] .
6.75

###

- ASSAYED SYSTEM: PARP2 (Homo sapiens (Human))
- Sequence (Q9UGN5 whole entry): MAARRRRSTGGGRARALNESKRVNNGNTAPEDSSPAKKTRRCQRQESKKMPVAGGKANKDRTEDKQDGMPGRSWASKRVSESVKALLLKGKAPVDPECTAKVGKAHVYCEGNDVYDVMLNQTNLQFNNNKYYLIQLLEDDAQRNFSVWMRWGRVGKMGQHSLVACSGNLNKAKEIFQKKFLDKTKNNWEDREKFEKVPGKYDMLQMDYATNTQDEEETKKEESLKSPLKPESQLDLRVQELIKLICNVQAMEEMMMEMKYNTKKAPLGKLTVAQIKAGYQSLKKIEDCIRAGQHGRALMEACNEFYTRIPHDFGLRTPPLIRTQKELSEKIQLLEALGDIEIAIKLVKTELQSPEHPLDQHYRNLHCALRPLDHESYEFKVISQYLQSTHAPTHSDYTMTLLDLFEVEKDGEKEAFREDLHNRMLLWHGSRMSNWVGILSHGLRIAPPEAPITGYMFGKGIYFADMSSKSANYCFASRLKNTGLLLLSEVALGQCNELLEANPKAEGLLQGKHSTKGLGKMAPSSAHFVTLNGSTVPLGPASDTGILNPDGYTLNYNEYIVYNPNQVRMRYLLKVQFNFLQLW
- EXPERIMENTAL PROTOCOL: PARP2 biochemical assay
- EXPERIMENTAL SETUP: read-out: PARP2 IC50
MEASUREMENT TYPE: IC50

Answered cases to consult:
C#CCOc1ccc2c(=O)[nH]nc(Cc3ccc(F)c(C(=O)N4CCN(c5ccc(C#N)cn5)CC4)c3)c2c1
< 50 nM
CC#Cc1ccc2c(=O)[nH]nc(C(C)N(C)CCC(=O)N3CCN(c4ncc(C(F)(F)F)cn4)CC3)c2c1 (stereo not shown)
> 2000 nM
N#Cc1ccc(N2CCN(C(=O)c3cc(Cc4n[nH]c(=O)c5ccc(CCC(F)(F)F)cc45)ccc3F)CC2)nc1
100 to 500 nM
CC#Cc1ccc2c(=O)[nH]nc(Cc3ccc(F)c(C(=O)N4CCn5c(nnc5C(F)(F)F)C4)c3)c2c1
50 to 100 nM

Retrieve IC50 measured for CNc1ccc2c(=O)[nH]nc(Cc3ccc(F)c(C(=O)N4CCN(c5ccc(C#N)cn5)CC4)c3)c2c1 and print it.
< 50 nM

Retrieve IC50 measured for N#Cc1ccc(N2CCN(C(=O)c3cc(Cc4n[nH]c(=O)c5ccc(NCC6CC6)cc45)ccc3F)CC2)nc1 and print it.
< 50 nM

Retrieve IC50 measured for N#Cc1ccc(N2CCN(C(=O)c3cccc(Cc4n[nH]c(=O)c5ccc(OC6CCC6)cc45)n3)CC2)nc1 and print it.
100 to 500 nM
